Origin of the recorded values: ChEMBL document CHEMBL5058577

# Test system: U2OS
# test: Multiplex assay against U2OS
# Assay type: toxicity, cell-based
# setupConditions: human, 12 h, 1 µM, compound concentration 1 uM, replicate 2
parameterMeasured: Population Normal (%)
Field format: number, assumed %, no unit text.

Some compounds with recorded Population Normal (%):
>  <compound>
CN1CCN2c3ccccc3Cc3ccccc3C2C1.Cl (centres undefined) [MIANSERIN HYDROCHLORIDE]

>  <systemName>
U2OS

>  <Population Normal (%)>
98

$$$$
>  <compound>
C=CCN1C[C@H](C(=O)N(CCCN(C)C)C(=O)NCC)C[C@@H]2c3cccc4[nH]cc(c34)C[C@H]21

>  <systemName>
U2OS

>  <Population Normal (%)>
96

$$$$
>  <compound>
CC(C)(C)c1ccc(CSc2cnn(C(C)(C)C)c(=O)c2Cl)cc1

>  <systemName>
U2OS

>  <Population Normal (%)>
99

$$$$
>  <compound>
Cc1cc(NC(=O)NCCN2CCC(O)(Cc3ccccc3)CC2)c2ccccc2n1

>  <systemName>
U2OS

>  <Population Normal (%)>
100

$$$$
>  <compound>
O=C(Nc1cc(-c2ccccc2)nn1-c1ccccc1F)c1ccc([N+](=O)[O-])cc1

>  <systemName>
U2OS

>  <Population Normal (%)>
98

$$$$

Challenge: Given the entry CCn1c(-c2nc3cc(C(=O)N4CCCC(N)C4)ccc3n2C)cc2ccccc21.Cl (centres undefined) , what Population Normal (%) was observed with U2OS?
Response given: 94

###

# Population Mitochondria Different-Phenotype (%) per record follows
# System: U2OS
# test: Multiplex assay against U2OS
# Format: toxicity, cell-based
# setupConditions: human, 12 h, 1 µM, compound concentration 1 uM, replicate 1

The following compounds have reported results that may help.
>  <querySmiles>
COc1cc(C(=O)N2CC[C@@H](O)[C@@H](N)C2)cc2nc(-c3cc4ccccc4n3CC3CC3)n(C)c12.Cl

>  <experimentalValue>
16%

$$$$
>  <querySmiles>
CC(C)(O)C(=O)N1CCN(c2ccc(C(F)(F)F)c(C3=C(c4c[nH]c5ccccc45)C(=O)NC3=O)c2)CC1

>  <experimentalValue>
2%

$$$$
>  <querySmiles>
Cc1cc(-c2ccc3c(c2)CC[C@H]3N2CC3(CCN(C(=O)Cc4cn5cc(C)sc5n4)CC3)C2)ncn1

>  <experimentalValue>
3%

$$$$
>  <querySmiles>
Cc1cc(=O)n(C)c2cc(N3C(=O)CC[C@H](NS(=O)(=O)CC(C)C)[C@H]3c3ccc(Cl)cc3)ccc12

>  <experimentalValue>
1%

$$$$
>  <querySmiles>
O=C(Nc1cc(-c2ccccc2)nn1-c1ccccc1F)c1ccc([N+](=O)[O-])cc1

>  <experimentalValue>
4%

$$$$

Challenge: Which measured Population Mitochondria Different-Phenotype (%) value corresponds to OCCCNc1cc(-c2ccnc(Nc3cccc(Cl)c3)n2)ccn1 ?
Response given: 4%

Challenge: Now the same for CN1CCN(c2ccc(Nc3c4ccccc4nc4ccccc34)cc2)CC1.Cl.Cl.O
Response given: 7%

Challenge: Field entry: COc1ccc2c(c1OCc1ccccc1)C[C@@H](C(=O)O)N(C(=O)C(c1ccccc1)c1ccccc1)C2
Response given: 0%

###

# System: U2OS
# test: Multiplex assay against U2OS
# Type: toxicity, cell-based
# setupConditions: human, 24 h, 1 µM, compound concentration 1 uM, replicate 2
Response field label: string, one of 1 (Population Membrane Permeable-Phenotype (%) strictly below 7%) or 0.

Worked cases, answers included:
>  <compound>
COc1cc(Nc2ncc3c(n2)-c2ccc(Cl)cc2C(c2c(F)cccc2OC)=NC3)ccc1C(=O)O

>  <systemName>
U2OS

>  <classLabel>
1

$$$$
>  <compound>
C=CCN1C[C@H](C(=O)N(CCCN(C)C)C(=O)NCC)C[C@@H]2c3cccc4[nH]cc(c34)C[C@H]21

>  <systemName>
U2OS

>  <classLabel>
0

$$$$
>  <compound>
Cc1ccc(OCC(O)C(C)NC(C)C)c2c1CCC2.Cl (configuration not stated)

>  <systemName>
U2OS

>  <classLabel>
1

$$$$
>  <compound>
CCn1c(-c2nc3cc(C(=O)N4CCCC(N)C4)ccc3n2C)cc2ccccc21.Cl (configuration not stated)

>  <systemName>
U2OS

>  <classLabel>
0

$$$$
>  <compound>
Cc1cc(-c2ccc3c(c2)CC[C@H]3N2CC3(CCN(C(=O)Cc4cn5cc(C)sc5n4)CC3)C2)ncn1

>  <systemName>
U2OS

>  <classLabel>
1

$$$$

Challenge: Given CN1CCC(C(=O)c2cccc(NC(=O)c3c(F)cc(F)cc3F)n2)CC1 , is recorded Population Membrane Permeable-Phenotype (%) strictly lower than 7%?
Response given: 1

Challenge: Now consider C[C@H](NC(=O)CNC(=O)c1cccc(Cl)c1)c1ccccc1 and answer again.
Response given: 1

Challenge: Can you handle CC(C)C[C@H](CO)Nc1nc(S[C@@H](C)c2ccccc2)nc2nc(N)sc12 next?
Response given: 1
